Target: Cyclooxygenase (Rattus norvegicus, UniProt P35355+Q63921)
Sequence (P35355 whole entry): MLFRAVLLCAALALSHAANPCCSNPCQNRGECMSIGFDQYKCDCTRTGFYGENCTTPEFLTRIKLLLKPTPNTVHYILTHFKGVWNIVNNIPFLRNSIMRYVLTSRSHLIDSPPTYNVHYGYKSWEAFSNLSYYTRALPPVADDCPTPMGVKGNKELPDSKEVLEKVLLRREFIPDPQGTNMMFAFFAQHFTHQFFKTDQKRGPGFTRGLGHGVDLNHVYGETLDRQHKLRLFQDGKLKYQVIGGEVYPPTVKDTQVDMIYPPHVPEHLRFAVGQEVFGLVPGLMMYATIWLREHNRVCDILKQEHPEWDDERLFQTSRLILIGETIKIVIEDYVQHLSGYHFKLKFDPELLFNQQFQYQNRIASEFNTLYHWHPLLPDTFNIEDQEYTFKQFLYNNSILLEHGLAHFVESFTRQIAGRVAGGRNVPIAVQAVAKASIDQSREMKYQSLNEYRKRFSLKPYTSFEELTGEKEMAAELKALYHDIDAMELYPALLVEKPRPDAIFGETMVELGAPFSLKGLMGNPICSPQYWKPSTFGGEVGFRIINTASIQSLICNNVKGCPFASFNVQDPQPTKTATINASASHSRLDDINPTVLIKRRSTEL
Sequence (Q63921 whole entry): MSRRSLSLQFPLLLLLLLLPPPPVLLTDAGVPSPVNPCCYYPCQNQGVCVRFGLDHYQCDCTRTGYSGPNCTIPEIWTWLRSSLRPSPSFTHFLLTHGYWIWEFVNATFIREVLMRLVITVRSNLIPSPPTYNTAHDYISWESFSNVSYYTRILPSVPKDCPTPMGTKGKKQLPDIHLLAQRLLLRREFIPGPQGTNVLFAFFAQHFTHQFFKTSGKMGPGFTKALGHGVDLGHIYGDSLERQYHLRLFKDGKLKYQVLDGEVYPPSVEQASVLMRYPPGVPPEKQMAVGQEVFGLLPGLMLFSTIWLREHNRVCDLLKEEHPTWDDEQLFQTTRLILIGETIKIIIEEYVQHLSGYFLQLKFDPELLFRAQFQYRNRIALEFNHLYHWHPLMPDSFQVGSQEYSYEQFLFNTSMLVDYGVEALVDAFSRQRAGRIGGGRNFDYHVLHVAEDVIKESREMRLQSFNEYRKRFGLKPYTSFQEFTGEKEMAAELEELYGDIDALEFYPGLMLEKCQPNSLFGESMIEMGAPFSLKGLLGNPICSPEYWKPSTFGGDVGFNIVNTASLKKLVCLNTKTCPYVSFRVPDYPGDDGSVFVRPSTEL
Conditions: rbl-1
Description: Tested for inhibition of cyclooxygenase (ARBC) in calcium-stimulated rat basophilic leukemia cells(RBL-1)
REPORTED_METRIC: IC50

The following molecules have reported results that may help.
# MOLECULE, ASSAYED_SYSTEM, ENDPOINT_RESULT
rows = [
    ("COc1ccc2c(c1)c(CN(O)C(C)=O)c(C)n2C(=O)c1ccc(Cl)cc1", "Cyclooxygenase (Rattus norvegicus, UniProt P35355+Q63921)", "15 µM"),
    ("COc1ccc2c(c1)c(C(C)N(O)C(N)=O)c(C)n2C(=O)c1ccc(Cl)cc1 (stereo unspecified)", "Cyclooxygenase (Rattus norvegicus, UniProt P35355+Q63921)", "0.89 µM"),
    ("CNC(=S)N(O)C(C)c1c(C)n(C(=O)c2ccc(Cl)cc2)c2ccc(OC)cc12 (stereo unspecified)", "Cyclooxygenase (Rattus norvegicus, UniProt P35355+Q63921)", "7 µM"),
]

Item COc1ccc2c(c1)c(C(C)N(O)C(C)=O)c(C)n2C(=O)c1ccc(Cl)cc1 (stereo unspecified) with Cyclooxygenase (Rattus norvegicus, UniProt P35355+Q63921) - IC50? 2.4 µM

Now try `CNC(=S)N(O)Cc1c(C)n(C(=O)c2ccc(Cl)cc2)c2ccc(OC)cc12` . 7.1 µM

Now try `COc1ccc2c(c1)c(CN(O)C(N)=O)c(C)n2C(=O)c1ccc(Cl)cc1` . > 20 µM

* * *

molecular target: UniProtKB P12527; assay: Tested for inhibition of 5-Lipoxygenase (ARBL) in calcium-stimulated rat basophilic leukemia cells(RBL-1)
Sequence (P12527 whole entry): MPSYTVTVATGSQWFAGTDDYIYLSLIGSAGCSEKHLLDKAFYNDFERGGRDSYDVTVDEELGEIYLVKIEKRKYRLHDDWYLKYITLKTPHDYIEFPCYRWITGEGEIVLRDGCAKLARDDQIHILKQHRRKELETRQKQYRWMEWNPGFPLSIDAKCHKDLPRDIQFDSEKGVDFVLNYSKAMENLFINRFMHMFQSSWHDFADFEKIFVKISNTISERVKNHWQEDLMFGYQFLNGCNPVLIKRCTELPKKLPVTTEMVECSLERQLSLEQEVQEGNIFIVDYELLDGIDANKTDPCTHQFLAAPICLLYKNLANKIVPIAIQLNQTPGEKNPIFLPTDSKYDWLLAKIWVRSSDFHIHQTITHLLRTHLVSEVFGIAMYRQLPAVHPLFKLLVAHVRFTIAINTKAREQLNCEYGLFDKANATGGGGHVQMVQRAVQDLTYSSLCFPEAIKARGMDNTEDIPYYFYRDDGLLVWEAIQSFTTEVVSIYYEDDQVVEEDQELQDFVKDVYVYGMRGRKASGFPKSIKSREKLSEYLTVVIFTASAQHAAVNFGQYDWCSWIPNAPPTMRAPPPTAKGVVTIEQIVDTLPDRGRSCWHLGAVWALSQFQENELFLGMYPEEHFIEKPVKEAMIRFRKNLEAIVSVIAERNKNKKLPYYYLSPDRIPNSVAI
REPORTED_METRIC: IC50 (nM)
Use nM as the unit, but write only the number.

The following compounds have reported results that may help.
# COMPOUND, ENDPOINT_RESULT
data = [
    ("CNC(=S)N(O)C(C)c1c(C)n(C(=O)c2ccc(Cl)cc2)c2ccc(OC)cc12 (stereo unspecified)", 570),
    ("COc1ccc2c(c1)c(C(C)N(O)C(C)=O)c(C)n2C(=O)c1ccc(Cl)cc1 (stereo unspecified)", 830),
    ("COc1ccc2c(c1)c(CN(O)C(N)=O)c(C)n2C(=O)c1ccc(Cl)cc1", 340),
    ("COc1ccc2c(c1)c(CN(O)C(C)=O)c(C)n2C(=O)c1ccc(Cl)cc1", 1400),
]

Consider the compound COc1ccc2c(c1)c(C(C)N(O)C(N)=O)c(C)n2C(=O)c1ccc(Cl)cc1 (stereo unspecified) and give its measured IC50. 1400

This collection of values is drawn from ChEMBL document CHEMBL1126384.
